- STUDY SYSTEM: CaBem1-D1
- TEST DESCRIPTION: SPOT peptide array binding signal intensity (averaged, normalized) (arbitrary units (background-subtracted, floor 0; scale differs between SH3 domains)); higher = stronger binding of the SH3 domain to the peptide
Measured SPOT peptide array binding signal intensity accompanies every entry in the list below.

Reference set, count: 2
> print(dat)
            binder  test.value
1  KRRTSLFPWLHKPGI         ≤ 0
2  HAPPLPPTAPPPPSL         ≤ 0

We next turn to a different binder, shown below.
Which SPOT peptide array binding signal intensity value belongs to "DLPLPDLPPEPPTEL" ?
≤ 0
